# SUBJECT_OF_TEST: angiotensin II receptor (Rattus norvegicus)
# Sequence (P25095 1-359): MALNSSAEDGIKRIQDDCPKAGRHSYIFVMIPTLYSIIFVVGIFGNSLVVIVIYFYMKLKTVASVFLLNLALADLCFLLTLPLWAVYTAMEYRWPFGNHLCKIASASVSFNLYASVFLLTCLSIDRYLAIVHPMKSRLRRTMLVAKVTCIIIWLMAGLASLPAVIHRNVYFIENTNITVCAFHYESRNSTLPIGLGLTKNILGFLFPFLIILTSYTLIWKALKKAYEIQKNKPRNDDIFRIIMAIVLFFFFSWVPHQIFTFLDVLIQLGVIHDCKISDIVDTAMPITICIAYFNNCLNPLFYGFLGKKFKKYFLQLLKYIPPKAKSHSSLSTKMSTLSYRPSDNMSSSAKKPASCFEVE
pIC50: −log10 of the molar value.
ENDPOINT_LABEL: pIC50

[[record]]
molecule_smiles = "CCCCc1nn2c(C)cccc2c1Cc1ccc(-c2ccccc2-c2nn[nH]n2)cc1"
measurement = 7.62

